Ref: the MegaScale stability set (Tsuboyama et al. 2023)

B1: 1ZHC (parent)
chain: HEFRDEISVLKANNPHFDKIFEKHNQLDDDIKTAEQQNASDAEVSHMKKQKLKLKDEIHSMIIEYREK

variants of: B1; test: folding stability dG (cDNA display proteolysis); higher = more stable; conditions: PBS, room temperature
Returns one of yes (1) or no (0); yes (1) when folding stability dG is >= 0.8 kcal/mol.

These recorded examples may help you get a feel for the data.
Say whether E67I shows folding stability dG of 0.8 kcal/mol or more. yes (1)

Then L10G ? no (0)

More entries:
Say whether I58L shows folding stability dG of 0.8 kcal/mol or more. no (0)

Then N38T ? no (0)

Then H46R ? yes (1)

Then A12P ? no (0)

Then H1D ? yes (1)

Then I63N ? no (0)

Then E6Y ? yes (1)
